Attribute: half-life
# METHOD NOTES: Determination of half-lives of the compounds in rats (oral, plasma HPLC)
# Type: in vivo
# RECORDED CONDITIONS: rat, male Sprague-Dawley rats, 10 mg/kg (text also says 5 mg/kg), 0.5% methylcellulose
Only the number, expressed in h, is required.

CN(C)CCCC1(c2ccc(F)cc2)OCc2cc(C#N)ccc21 (centres unmarked) [Citalopram, reference compound] = 3.24
CN(C)CCCC1(c2ccc(N(C)C)cc2)OCc2cc(C#N)ccc21.O=C(O)C(=O)O (centres unmarked) = 3.51
CN(C)CCCC1(c2cccs2)OCc2cc(C#N)ccc21.O=C(O)C(=O)O (centres unmarked) = 1.26
N#Cc1ccc2c(c1)COC2(CCCn1ccnc1)c1cccs1.O=C(O)C(=O)O (centres unmarked) = 1.06

Enquiry: // returns reported half-life for input COc1ccc(C2(CCCN(C)C)OCc3cc(C#N)ccc32)cc1.O=C(O)C(=O)O (centres unmarked)
Return: 1.28

---

# System: Sprague-Dawley (SD) rats
# METHOD NOTES: Acute toxicity test, single dose, mortality
# Assay type: in vivo, rat
# RECORDED CONDITIONS: Orally, female SD rats
# Excerpt: The present derivatives and citalopram were individually administered orally and intra-venously to SD rats at a single dose.
Attribute: minimum lethal dose
Lab note: jot down the number only; don't add units.

CN(C)CCCC1(c2ccc(N(C)C)cc2)OCc2cc(C#N)ccc21.O=C(O)C(=O)O (centres unmarked) = 1000
CN(C)CCCC1(c2cccs2)OCc2cc(C#N)ccc21.O=C(O)C(=O)O (centres unmarked) = 800
CN(C)CCCC1(c2ccc(F)cc2)OCc2cc(C#N)ccc21 (centres unmarked) [Citalopram, reference compound] = 650
N#Cc1ccc2c(c1)COC2(CCCn1ccnc1)c1cccs1.O=C(O)C(=O)O (centres unmarked) = 1000

// next item, minimum lethal dose requested
Enquiry: // returns reported minimum lethal dose for input COc1ccc(C2(CCCN(C)C)OCc3cc(C#N)ccc32)cc1.O=C(O)C(=O)O (centres unmarked)
Return: 1000

---

# STUDY SYSTEM: 5-HT transporter (Homo sapiens)
# Sequence (P31645 whole entry): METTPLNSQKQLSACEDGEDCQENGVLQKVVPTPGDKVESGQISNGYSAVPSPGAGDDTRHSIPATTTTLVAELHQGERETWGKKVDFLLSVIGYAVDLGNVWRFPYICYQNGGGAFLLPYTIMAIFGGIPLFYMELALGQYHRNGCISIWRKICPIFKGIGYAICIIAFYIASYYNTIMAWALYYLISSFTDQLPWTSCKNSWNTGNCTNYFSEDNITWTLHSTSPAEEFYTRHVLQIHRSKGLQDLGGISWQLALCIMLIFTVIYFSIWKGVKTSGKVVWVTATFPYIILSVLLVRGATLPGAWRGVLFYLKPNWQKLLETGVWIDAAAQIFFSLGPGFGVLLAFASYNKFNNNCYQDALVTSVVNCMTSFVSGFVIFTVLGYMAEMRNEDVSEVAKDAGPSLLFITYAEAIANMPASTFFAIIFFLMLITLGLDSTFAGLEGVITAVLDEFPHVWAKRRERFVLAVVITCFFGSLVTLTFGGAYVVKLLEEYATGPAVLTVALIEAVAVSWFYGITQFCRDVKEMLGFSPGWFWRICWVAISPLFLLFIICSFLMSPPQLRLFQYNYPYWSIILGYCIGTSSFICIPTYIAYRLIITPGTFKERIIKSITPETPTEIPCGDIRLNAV
# METHOD NOTES: Radioligand competitive binding assay, [3H]Paroxetine
# RECORDED CONDITIONS: human-derived recombinant HEK-293 cells
# Procedure: In addition, ligand binding to 5HT1A, 5-HT1B and 5-HT2C receptors and 5-HT transporter was evaluated with human-derived recombinant CHO cells, Wistar rat-derived cerebral cortical cells, human-derived recombinant CHO-K1 cells, and human-derived recombinant HEK-293 cells. Each cell line was dosed with 10^−5 μM to 10^4 μM of the compounds of Examples 2, 35, 40 and 45, and then incubated with a radio-labeled ligand for competitive binding. […]
Attribute: IC50
Only the number, expressed in nM, is required.

Use the examples below as a reference point.
CN(C)CCCC1(c2cccs2)OCc2cc(C#N)ccc21.O=C(O)C(=O)O (stereo not shown) [Ex. 40, oxalate] = 12.5
N#Cc1ccc2c(c1)COC2(CCCn1ccnc1)c1cccs1.O=C(O)C(=O)O (stereo not shown) [Ex. 45, oxalate] = 8.7

Enquiry: // returns reported IC50 for input CN(C)CCCC1(c2ccc(N(C)C)cc2)OCc2cc(C#N)ccc21.O=C(O)C(=O)O (stereo not shown) [Ex. 35, oxalate]
Return: 1

---

# Test system: Male Wistar rats
# METHOD NOTES: p-PCA-induced ejaculation in anesthetized rats (ejaculation-delaying effect)
# Format: in vivo, rat
# RECORDED CONDITIONS: 50 mg/kg oral; p-PCA 5 mg/kg i.p.; mean ± standard deviation of responding rats
Classify by Latency: Time to display the ejaculatory response. Ranges: band A (below 900 s), band B (900 s to below 1000 s), band C (1000 s or more)

Please review the entries below; each comes with its answer.
CN(C)c1ccc(C2(CCCn3ccnc3)OCc3cc(C#N)ccc32)cc1.Cl (stereo not shown) [Ex. 38] = band A
Cl.N#Cc1ccc2c(c1)COC2(CCn1ccnc1)c1ccccc1 (stereo not shown) [Ex. 19] = band B
CN(C)CCC1(c2ccccc2)OCc2cc(C#N)ccc21 (stereo not shown) [Ex. 14] = band C
N#Cc1ccc2c(c1)COC2(CCCn1ccnc1)c1ccc(F)cc1 (stereo not shown) [Ex. 53] = band C
CN(C)CCCC1(c2cccs2)OCc2cc(C#N)ccc21 (stereo not shown) [Ex. 39] = band A

Enquiry: Looking at Cl.N#Cc1ccc2c(c1)COC2(CCCn1ccnc1)c1ccccc1 (stereo not shown) [Ex. 17] , which class would you pick?
Return: band B

Enquiry: Looking at COc1ccc(C2(CCCn3cccn3)OCc3cc(C#N)ccc32)cc1.Cl (stereo not shown) [Ex. 9] , which class would you pick?
Return: band B

Enquiry: Looking at COc1ccc(C2(CCCn3ccnc3)OCc3cc(C#N)ccc32)cc1 (stereo not shown) [Ex. 4] , which class would you pick?
Return: band C

Enquiry: Looking at N#Cc1ccc2c(c1)COC2(CCn1cccn1)c1ccc(Cl)cc1 (stereo not shown) [Ex. 67] , which class would you pick?
Return: band A
